// values below are reported herbicidal damage, PRE Application ALOMY
System: Alopecurus myosuroides (ALOMY)
Assay: Pre-emergence herbicidal glasshouse test on Alopecurus myosuroides
Format: in vivo
Settings: pre-emergence, 1000 g/h, evaluated after 13 days, five point scale
reported-property: herbicidal damage, PRE Application ALOMY

# smiles-str, reported-property, observed-result
records = [
    ("Cn1ncc(-n2ccc(C(F)(F)F)c(-c3ccccc3Cl)c2=O)c(O)c1=O", "herbicidal damage, PRE Application ALOMY", "5 (5=80-100% damage)"),
    ("CS(=O)(=O)c1ccc(-c2cnn(C3CC3)c(=O)c2O)c(Cl)c1C1=NOCC1", "herbicidal damage, PRE Application ALOMY", "3 (3=40-59% damage)"),
    ("Cc1ccc2cc(-c3cnn(C)c(=O)c3O)c(C(F)(F)F)nc2n1", "herbicidal damage, PRE Application ALOMY", "2 (2=20-39% damage)"),
    ("Cc1nc2nc(C(F)(F)F)c(-c3cnn(C)c(=O)c3O)cc2cc1F", "herbicidal damage, PRE Application ALOMY", "2 (2=20-39% damage)"),
    ("COc1ccc(-c2cnn(C)c(=O)c2O)c(OC)n1", "herbicidal damage, PRE Application ALOMY", "1 (1=0-19% damage)"),
]

====

Test system: Ipomoea hederacea (IPOHE)
Experiment: Pre-emergence herbicidal glasshouse test on Ipomoea hederacea
Assay type: in vivo
Settings: pre-emergence; 1000 g/h; evaluated after 13 days
reported-property: PRE Application IPOHE herbicidal damage (five point scale)

# smiles-str, observed-result
records = [
    ("Cn1ncc(-c2ccc(S(=O)(=O)Cc3ccccc3)cc2S(C)(=O)=O)c(O)c1=O", "5 (5=80-100% damage)"),
    ("CS(=O)(=O)c1ccc(-c2cn[nH]c(=O)c2O)c(Cl)c1C1=NOCC1", "1 (1=0-19% damage)"),
    ("COc1cc(-c2c(C(F)(F)F)ccn(-c3cnn(C)c(=O)c3O)c2=O)cc(OC)c1OC", "4 (4=60-79% damage)"),
    ("Cn1ncc(-c2ccc(F)cc2S(C)(=O)=O)c(O)c1=O", "5 (5=80-100% damage)"),
    ("C=CCn1ncc(-c2ccccc2S(C)(=O)=O)c(O)c1=O", "5 (5=80-100% damage)"),
    ("Cn1ncc(-c2ccc(C(F)(F)F)cc2[N+](=O)[O-])c(O)c1=O", "1 (1=0-19% damage)"),
    ("Cn1ncc(-n2ccc(C(F)(F)F)c(-c3cncnc3)c2=O)c(O)c1=O", "4 (4=60-79% damage)"),
    ("COc1cccn(-c2cnn(C)c(=O)c2O)c1=O", "1 (1=0-19% damage)"),
]

====

Tested on: Amaranthus retoflexus (AMARE)
Assay: Pre-emergence herbicidal glasshouse test on Amaranthus retoflexus
Type: in vivo
Settings: pre-emergence; 1000 g/h; evaluated after 13 days
reported-property: PRE Application AMARE herbicidal damage (five point scale)

# molecule, observed-result
rows = [
    ("Cn1ncc(-c2ccccc2[S+](C)[O-])c(O)c1=O (stereo not drawn)", "3 (3=40-59% damage)"),
    ("CC(C)OCc1ccc(-c2cnn(C)c(=O)c2O)c(S(C)(=O)=O)c1", "5 (5=80-100% damage)"),
    ("CS(=O)(=O)c1cc(Cl)ccc1-c1cnn(C2CC2)c(=O)c1O", "5 (5=80-100% damage)"),
    ("C=CCn1c(C(F)(F)F)ccc(-c2cnn(C)c(=O)c2O)c1=O", "4 (4=60-79% damage)"),
    ("Cc1ccc(-c2cnn(C)c(=O)c2O)c(Cl)c1", "1 (1=0-19% damage)"),
    ("Cn1ncc(-c2ccc(OCC(F)(F)F)cc2S(C)(=O)=O)c(O)c1=O", "5 (5=80-100% damage)"),
    ("COCn1ncc(-c2ccccc2[S+](C)[O-])c(O)c1=O (stereo not drawn)", "5 (5=80-100% damage)"),
    ("CC(C)S(=O)(=O)c1ccccc1-c1cnn(C)c(=O)c1O", "5 (5=80-100% damage)"),
    ("Cc1nc(C(C)F)ccc1-c1cnn(C)c(=O)c1O (stereo not drawn)", "4 (4=60-79% damage)"),
]
